Form: system (Stromelysin-1 (Homo sapiens, UniProt P08254)), quantity (IC50), values below.
Measurement Name: IC50 (nM)

[[record]]
compound = "COc1ccc(S(=O)(=O)N(CC(C)C)C(CCS(=O)(=O)Cc2ccccc2)C(=O)NO)cc1 (stereo not drawn)"
measurement_name = "IC50"
value_reported = 10.3

[[record]]
compound = "COc1ccc(S(=O)(=O)N(CC(C)C)C(CCSCc2ccsc2)C(=O)NO)cc1 (stereo not drawn)"
measurement_name = "IC50"
value_reported = 5.4

[[record]]
compound = "CC(C)CN(C(CCSCc1ccccc1)C(=O)NO)S(=O)(=O)c1ccc(-c2ccccc2)cc1 (stereo not drawn)"
measurement_name = "IC50"
value_reported = 90

[[record]]
compound = "COc1ccc(S(=O)(=O)N(CC(=O)NC(c2ccccc2)c2ccccc2)C(CCSCc2ccccc2)C(=O)NO)cc1 (stereo not drawn)"
measurement_name = "IC50"
value_reported = 3.7

[[record]]
compound = "COc1ccc(S(=O)(=O)N(CC(C)C)C(CCSCc2ccc(-c3ccccc3)cc2)C(=O)NO)cc1 (stereo not drawn)"
measurement_name = "IC50"
value_reported = 20

[[record]]
compound = "COc1ccc(S(=O)(=O)N(CC(=O)NCc2ccccc2)C(CCSCc2ccccc2)C(=O)NO)cc1 (stereo not drawn)"
measurement_name = "IC50"
value_reported = 1.6

[[record]]
compound = "COc1ccc(S(=O)(=O)N(CC(C)C)C(CCSCc2cccnc2)C(=O)NO)cc1 (stereo not drawn)"
measurement_name = "IC50"
value_reported = 6.2

[[record]]
compound = "COc1ccc(S(=O)(=O)N(CC(C)C)C(CCSCc2ccc(OCc3ccccc3)cc2)C(=O)NO)cc1 (stereo not drawn)"
measurement_name = "IC50"
value_reported = 29

[[record]]
compound = "COc1ccc(CNC(=O)CN(C(CCSCc2ccccc2)C(=O)NO)S(=O)(=O)c2ccc(OC)cc2)cc1 (stereo not drawn)"
measurement_name = "IC50"
value_reported = 0.9

[[record]]
compound = "COc1ccc(S(=O)(=O)N(CC(=O)NCc2cc(OC)cc(OC)c2)C(CCSCc2ccccc2)C(=O)NO)cc1 (stereo not drawn)"
measurement_name = "IC50"
value_reported = 4.7

[[record]]
compound = "COc1ccc(S(=O)(=O)N(CC(C)C)C(CCSCc2cccc(OC)c2)C(=O)NO)cc1 (stereo not drawn)"
measurement_name = "IC50"
value_reported = 5.7

[[record]]
compound = "CCC(C(=O)NO)N(CC(C)C)S(=O)(=O)c1ccc(OC)cc1 (stereo not drawn)"
measurement_name = "IC50"
value_reported = 45

[[record]]
compound = "COc1ccc(S(=O)(=O)N(CC(=O)N2CCOCC2)C(CCSCc2ccccc2)C(=O)NO)cc1 (stereo not drawn)"
measurement_name = "IC50"
value_reported = 195


* * *

Recorded pIC50 values for a group of compounds are listed next.
# Target Of Assay: Matrix metalloproteinase-9 (Homo sapiens)
# Sequence (P14780 whole entry): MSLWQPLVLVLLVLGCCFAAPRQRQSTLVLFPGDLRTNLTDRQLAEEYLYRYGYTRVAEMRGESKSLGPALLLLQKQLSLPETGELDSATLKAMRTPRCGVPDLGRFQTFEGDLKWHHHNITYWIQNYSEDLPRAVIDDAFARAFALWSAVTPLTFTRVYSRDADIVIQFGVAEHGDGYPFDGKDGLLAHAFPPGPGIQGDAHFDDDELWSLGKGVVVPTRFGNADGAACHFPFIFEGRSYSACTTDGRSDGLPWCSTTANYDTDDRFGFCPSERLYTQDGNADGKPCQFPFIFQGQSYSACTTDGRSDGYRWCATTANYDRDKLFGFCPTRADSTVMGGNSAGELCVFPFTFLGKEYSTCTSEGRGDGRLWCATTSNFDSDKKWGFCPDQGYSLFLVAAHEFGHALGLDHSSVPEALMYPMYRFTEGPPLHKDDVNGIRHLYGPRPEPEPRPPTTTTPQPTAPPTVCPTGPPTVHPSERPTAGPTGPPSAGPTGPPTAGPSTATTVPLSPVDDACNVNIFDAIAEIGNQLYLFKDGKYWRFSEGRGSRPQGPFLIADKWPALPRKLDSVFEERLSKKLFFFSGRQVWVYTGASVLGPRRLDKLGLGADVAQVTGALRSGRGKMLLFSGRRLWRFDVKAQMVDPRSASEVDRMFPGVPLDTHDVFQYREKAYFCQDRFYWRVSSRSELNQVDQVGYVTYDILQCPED
# Assay Details: In vitro inhibition of human matrix metalloprotease-9
pIC50: −log10 of the molar value.
Measurement Name: pIC50

[[record]]
compound = "COc1ccc(S(=O)(=O)N(CC(=O)NCC2CCCCC2)C(CCSCc2ccccc2)C(=O)NO)cc1 (stereo not drawn)"
value_reported = 11.00

[[record]]
compound = "CC(C)CN(C(CCSCc1ccccc1)C(=O)NO)S(=O)(=O)c1ccc(Br)cc1 (stereo not drawn)"
value_reported = 8.37

[[record]]
compound = "COc1ccc(S(=O)(=O)N(CC(=O)NC2CCCCC2)C(CCSCc2ccccc2)C(=O)NO)cc1 (stereo not drawn)"
value_reported = 9.70

[[record]]
compound = "COc1ccc(S(=O)(=O)N(CC(=O)NC(c2ccccn2)c2ccccn2)C(CCSCc2ccccc2)C(=O)NO)cc1 (stereo not drawn)"
value_reported = 9.70

[[record]]
compound = "COc1ccc(S(=O)(=O)N(CC(=O)N2CCOCC2)C(CCSCc2ccccc2)C(=O)NO)cc1 (stereo not drawn)"
value_reported = 7.54

[[record]]
compound = "COc1ccc(S(=O)(=O)N(CC(=O)NCc2cc(OC)cc(OC)c2)C(CCSCc2ccccc2)C(=O)NO)cc1 (stereo not drawn)"
value_reported = 9.22

[[record]]
compound = "COc1ccc(S(=O)(=O)N(CC(C)C)C(CCS(=O)(=O)Cc2ccccc2)C(=O)NO)cc1 (stereo not drawn)"
value_reported = 9.05

[[record]]
compound = "COc1ccc(S(=O)(=O)N(CC(C)C)C(CCSCc2cccc(OC)c2)C(=O)NO)cc1 (stereo not drawn)"
value_reported = 8.49


The measured values listed here are drawn from ChEMBL document CHEMBL1134591.
